system: P-gp (MDR1); assay: In vitro cell permeability / P-gp substrate assay; conditions: pig, LLC-PK1, pH 7.4, with 5 µM GF120918 (elacridar), Papp BA, LLC-MDR1, basolateral to apical, + 5 µM GF120918
TEST_READOUT: Papp B→A at 120 min, 5 µM (×10⁻⁶ cm/s)
Just the number in ×10⁻⁶ cm/s, nothing appended.

Inquiry: # lookup: Papp B→A at 120 min, 5 µM of CSCC[C@@H]1NC(=O)CNC(=O)CNC(=O)[C@H](C)NC(=O)[C@H](C(C)C)NC(=O)CNC(=O)[C@H](CC(C)C)NC(=O)[C@@H]2CCCN2C(=O)[C@H](CC(=O)O)NC(=O)[C@H](CCC(=O)O)NC(=O)[C@H](Cc2ccc(O)cc2)NC(=O)[C@H](CC(C)C)NC(=O)CNC1=O
Reply text: 0.33

###

experiment: In vitro cell permeability assay; conditions: pig, LLC-PK1, pH 7.4, Papp BA, LLC-Parent, basolateral to apical, no inhibitor
TEST_READOUT: Papp B→A at 120 min, 5 µM

Inquiry: # lookup: Papp B→A at 120 min, 5 µM of CSCC[C@@H]1NC(=O)CNC(=O)CNC(=O)[C@H](C)NC(=O)[C@H](C(C)C)NC(=O)CNC(=O)[C@H](CC(C)C)NC(=O)[C@@H]2CCCN2C(=O)[C@H](CC(=O)O)NC(=O)[C@H](CCC(=O)O)NC(=O)[C@H](Cc2ccc(O)cc2)NC(=O)[C@H](CC(C)C)NC(=O)CNC1=O [CP14]
Reply text: 0.12 ×10⁻⁶ cm/s

###

experiment: In vitro cell permeability assay; details: LLC-PK1, Papp BA, LLC-Parent, basolateral to apical, no inhibitor
TEST_READOUT: Papp B→A (×10⁻⁶ cm/s)
Just the number in ×10⁻⁶ cm/s, nothing appended.

Inquiry: # lookup: Papp B→A of CSCC[C@@H]1NC(=O)CNC(=O)CNC(=O)[C@H](C)NC(=O)[C@H](C(C)C)NC(=O)CNC(=O)[C@H](CC(C)C)NC(=O)[C@@H]2CCCN2C(=O)[C@H](CC(=O)O)NC(=O)[C@H](CCC(=O)O)NC(=O)[C@H](Cc2ccc(O)cc2)NC(=O)[C@H](CC(C)C)NC(=O)[C@H](CO)NC(=O)[C@H](C(C)C)NC(=O)[C@H]2CCCN2C(=O)[C@@H]2CCCN2C(=O)[C@H](Cc2ccc(O)cc2)NC(=O)[C@H](C(C)C)NC(=O)CNC1=O
Reply text: 0.19

###

assay: In vitro cell permeability assay; settings: pig, LLC-PK1, pH 7.4, with 5 µM GF120918 (elacridar), Papp BA, LLC-Parent, basolateral to apical, + 5 µM GF120918
TEST_READOUT: Papp B→A at 120 min, 5 µM (nm/s)
Just the number in nm/s, nothing appended.

Inquiry: # lookup: Papp B→A at 120 min, 5 µM of CSCC[C@@H]1NC(=O)CNC(=O)CNC(=O)[C@H](C)NC(=O)[C@H](C(C)C)NC(=O)CNC(=O)[C@H](CC(C)C)NC(=O)[C@@H]2CCCN2C(=O)[C@H](CC(=O)O)NC(=O)[C@H](CCC(=O)O)NC(=O)[C@H](Cc2ccc(O)cc2)NC(=O)[C@H](CC(C)C)NC(=O)CNC1=O
Reply text: 1.1
